molecular target: T1, Sm (sphingomyelin); test: AtheNA Multi-Lyte ANA, Ab at 50 ug/ml;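 note: monoclonal antibodies probed against a nuclear autoantigen panel (SSA, SSB, Sm, RNP, Scl-70, Jo-1, dsDNA, CentB, histones), with anti-HIV 4E10 and palivizumab as control antibodies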
T1 construct: in an ANA panel of nuclear antigens Sm is usually the Smith ribonucleoprotein antigen; Kept, but see recheck
experimental readout: AtheNA signal
One number for each entry.

Ab7962/293i (antibody, V domains shown, Recombinant human antibody with IgG1 heavy chain backbone and kappa light chain constant (IgM in the donor B cell); they begin at LVESGGG and MTQSL; also called clone 27; pH007962/pK005996) VH: LVESGGGLVQPGGSLRLSCAASGFTFSSYEMNWVRQAPGKGLEWVSYISSSGSTIYYADSVKGRFTISRDNAKNSLYLQMNSLRAEDTAVYYCARVEQLAPSPYMDVWGKGTTVTVSS VL: MTQSLDSLTVSLGERATINCKSSQSLLYTSNNKNYLAWYQQKSGQPPKLLIYWASIRDSGVPDRFSGSGSATDFTLTINNLQAEDVAVYFCQQYYKTPLTFGGGTKVEVR	4
Ab7957/293i (antibody, IgG1, V domains shown, Recombinant human antibody with IgG1 heavy chain backbone and kappa light chain constant; they begin at LVESGGG and MTQSP; also called Ab7957i; mAb 7957) VH: LVESGGGVVPPGKSLRLSCAASGFTFSLYGIHWVRQAPGKGLEWVAVISYDGNTKYYTDSVKGRFTISRDNAKNTIYLQMNSLRLDDTAVYYCAKGAANSATFDFWGRGTMVTVSS VL: MTQSPDSLTLSLGERATINCRSSRTVLYRSNNKNYLAWYQHKPGQPPKLLMSWASTRETGVPDRFSGSGSGTHFTLTITSLQPEDVAVYYCQQYYSPPWTFGQGTKVEIR	4

API: the following record is the query input.
Data request: Requested field: AtheNA signal. Item: Ab7960/293i (antibody, IgG1, V domains shown, Recombinant human antibody with IgG1 heavy chain backbone and kappa light chain constant; they begin at LVESGGG and MTQSP; also called mAb 7960; mAb7960) VH: LVESGGGVVQPGKSLRLSCVASGFSFSTYGMHWVRQAPGKGLEWVAVMSFDGKTKYYADSVKGRFTISRDNPKNTLYLQMNSLRSEDTAVYYCAKGGAAAAVFDSWGPGILLTVSS VL: MTQSPNSLAVSLGGRATINCKASQSILYRSNNKNYLAWYQHKAGQPPKLLIYWASTRESGVPERFSGSGSRTDFTLTINGLQAEDVAVYYCQQYYNPPWTFGQGTKVEIK
Data returned: 2
